test system: NIM1; construct: gene MGC42105; details: concentration: 1 μM,replicates: in singlicate; n = 1;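 further: KINOMEscan kinase panel screen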
%Inh vs 20%: less than gives t; not less than gives f.

molecule	group
CCn1c(-c2nonc2N)nc2cncc(Br)c21	f

is_below(%Inh, 20%) for "Cn1ccc2ncnc(Oc3ccc(NC(=O)Nc4cc(C(C)(C)C)on4)c(Cl)c3)c21" ?
t

is_below(%Inh, 20%) for "C[C@@H]1CNc2c(sc3ccc4nc(-c5ccncc5)ccc4c23)C(=O)N1" ?
t

is_below(%Inh, 20%) for N#Cc1cccc(C(=O)NC2CCN(c3ccnc(Nc4ccc(F)cc4)n3)C2)c1 (centres unmarked) ?
t

is_below(%Inh, 20%) for "CC(=O)Nc1nc2cnc(Nc3cc(NC(=O)c4cccc(CC(C)(C)C#N)c4)ccc3C)nc2s1" ?
f

is_below(%Inh, 20%) for "O=C(Nc1cccc(Oc2ccc3nccn3n2)c1)Nc1cccc(C(F)(F)F)c1" ?
t

is_below(%Inh, 20%) for "OCCn1cc(-c2cnc3nnn(Cc4ccc5ncccc5c4)c3n2)cn1" ?
t

is_below(%Inh, 20%) for "Cn1ccc2ncnc(Oc3ccc(NC(=O)Nc4cccc(C(F)(F)F)c4)c(F)c3)c21" ?
t

---

Record form. Attribute: %Inh. Fill in for each entry.
tested on: YES; construct: gene YES1; conditions: concentration: 1 μM,replicates: in singlicate; n = 1
One number for each entry, in %.

// worked examples, %Inh included
compound	test_system	unit_symbol	recorded_number
NC(=O)c1ccc(-c2cc3ncnc(SCC(=O)O)c3s2)cc1	YES	%	0
CCn1c(-c2nonc2N)nc2cncc(CNC3CCNCC3)c21.Cl [SB-747651]	YES	%	11
Cc1cccc2c(-c3ccncc3)c(-c3ccc(F)cc3)nn12.Cl [GW461487]	YES	%	11
NC(=O)Nc1sc(-c2ccc(F)cc2)cc1C(N)=O [GW789449]	YES	%	0
CCn1c(-c2nonc2N)nc2cncc(Br)c21 [SB-738004]	YES	%	0

Consider the following items and state reported %Inh for each.
1. COC(=O)Nc1nc2cc(Oc3ccc(NC(=O)Nc4cc(C(F)(F)F)ccc4Cl)cc3)ccc2[nH]1.Cl [GW697465]
2. CS(=O)(=O)c1cccc(CNc2nc(Nc3ccc4c(c3)[C@@H]3C[C@@H]4CNC3=O)ncc2C(F)(F)F)c1

1. 29
2. 0

---

system: TLK1; conditions: concentration: 1 μM,replicates: in singlicate; n = 1
Record form. Attribute: %Inh. Fill in for each entry.
Give bare numbers, in %.

compound	%Inh / %
C[C@@H]1CCN(C(=O)N2CCCC2)C[C@@H]1N(C)c1ncnc2[nH]ccc12	12

Consider the following items and state reported %Inh for each.
1. COc1cccc(CNC(=O)NC2CCN(c3ccnc(Nc4cc(OC)c(OC)c(OC)c4)n3)C2)c1 (stereo not drawn) [GSK1379765]
2. O=C(Nc1ccccc1)c1cccc(Oc2ccc3nccn3n2)c1
3. CC(C(=O)NC1CCN(c2ccnc(Nc3ccc(F)cc3)n2)C1)c1ccc(Cl)cc1 (stereo not drawn) [GSK1379713]
4. NC(=O)c1ccc(-c2cc3ncnc(SCC(=O)O)c3s2)cc1

1: 0; 2: 100; 3: 0; 4: 5

Consider the following items and state reported %Inh for each.
1. Cn1ccc2ncnc(Oc3ccc(NC(=O)Nc4cnn(C(C)(C)C)c4)c(Cl)c3)c21
2. COc1cccc(C2=C(Nc3cccc(Cl)c3)C(=O)NC2=O)c1 [SB-341556]
3. Cc1nnc(-c2ccc3occ(-c4ccc(S(C)=O)cc4)c3n2)o1 (stereo not drawn)

1: 17; 2: 38; 3: 3

What the record says about COc1cc2ncn(-c3cc(OCC4CCCCC4)c(C(N)=O)s3)c2cc1OC [GSK204559] : %Inh is 6

---

system: PIK3C2G; settings: concentration: 1 μM,replicates: in singlicate; n = 1
measured_quantity: %Inh (%)
Numbers only, in %.

// worked examples, %Inh included
molecule	%Inh / %
Cn1ccc2ncnc(Oc3ccc(NC(=O)Nc4ccnc(C(F)(F)F)c4)c(Cl)c3)c21	13
Nc1nccc(-c2ccc3c(N)n[nH]c3c2)n1 [GSK1034945]	0
CCNCC(Cc1ccccc1)NC(=O)c1cc(Br)c(-c2ccnc3[nH]ccc23)s1.Cl.Cl (stereo not shown) [GSK1383280]	0
O=C(Nc1cccc(C(F)(F)F)c1)c1cccc(Oc2ccc3nccn3n2)c1	13
CN1CCN(CCNc2nc3cc(Oc4ccc(NC(=O)Nc5cc(C(F)(F)F)ccc5F)cc4)ccc3[nH]2)CC1.Cl.Cl [GW768504]	0

Consider the following items and state reported %Inh for each.
1. Cn1ccc2ncnc(Oc3ccc(NC(=O)Nc4cc(C(C)(C)C)on4)c(Cl)c3)c21
2. Cl.Nc1n[nH]c2cc(-c3ccccn3)ccc12 [GSK2189892]
3. CC(=O)Nc1nc2cnc(Nc3cc(NC(=O)c4cccc(CC(C)(C)C#N)c4)ccc3C)nc2s1

1. 48
2. 0
3. 60

Consider the following items and state reported %Inh for each.
1. Cl.c1ccc(Oc2ccc(Nc3ccnc4cc(-c5ccc(CN6CCNCC6)o5)ccc34)cc2)nc1 [GW567142]
2. O=C(Nc1n[nH]c2cc(-c3ccco3)ccc12)C1CC1 [SB-737447]
3. C[C@@H](Oc1cc(-n2cnc3cc(-c4ccncc4)ccc32)sc1C(N)=O)c1ccccc1Cl [GSK479719]
4. CCOC(=O)N1CCC(n2cnc(-c3ccc(F)cc3)c2-c2ccnc(N)n2)CC1 [SB-219952]
5. CS(=O)c1ccc(-c2coc3ccc(-c4n[nH]c(=O)o4)cc23)cc1 (stereo not shown)

1. 0
2. 17
3. 0
4. 69
5. 49

---

Record form. Attribute: %Inh. Fill in for each entry.
system: CAMK1G; settings: concentration: 1 μM,replicates: in singlicate; n = 1
Answers are plain numbers, in %.

// worked examples, %Inh included
compound	unit_symbol	%Inh
Cn1ccc2ncnc(Oc3ccc(NC(=O)Nc4cccc(C(F)(F)F)c4)c(F)c3)c21	%	11
CCn1c(-c2nonc2N)nc2cncc(CNC3CCNCC3)c21.Cl [SB-747651]	%	0
CN(c1cccc(CNc2nc(Nc3ccc4c(c3)CC(=O)N4)ncc2C(F)(F)F)c1)S(C)(=O)=O	%	15
COc1cccc(CNC(=O)NC2CCN(c3ccnc(Nc4cc(OC)c(OC)c(OC)c4)n3)C2)c1 (stereo not shown) [GSK1379765]	%	0
COc1cccc(C2=C(Nc3cccc(Cl)c3)C(=O)NC2=O)c1 [SB-341556]	%	0
COc1cccc(OC)c1C(=O)Nc1cccc(-c2nn3ccccc3c2-c2ccnc(Nc3cccc(F)c3)n2)c1 [GSK361065]	%	0

Consider the following items and state reported %Inh for each.
1. COC(=O)c1cccc(NC(=O)NC2CCN(c3ccnc(NCc4ccc(F)cc4)n3)CC2)c1 [GSK1379860]
2. C[C@@H]1CNc2c(sc3ccc4nc(-c5ccncc5)ccc4c23)C(=O)N1

[0, 0]

---

tested on: CDK4-cyclinD3; conditions: concentration: 1 μM,replicates: in singlicate; n = 1
Record form. Attribute: %Inh. Fill in for each entry.

// worked examples, %Inh included
compound	%Inh
O=C(Nc1n[nH]c2cc(-c3ccco3)ccc12)C1CC1	6%
CCNCC(Cc1ccccc1)NC(=O)c1cc(Br)c(-c2ccnc3[nH]ccc23)s1.Cl.Cl (stereo not drawn)	6%
CCn1c(-c2nonc2N)nc2cncc(Br)c21	0%

Consider the following items and state reported %Inh for each.
1. COC(=O)Nc1nc2cc(Oc3ccc(NC(=O)Nc4cc(C(F)(F)F)ccc4Cl)cc3)ccc2[nH]1.Cl
2. FC(F)(F)c1cc(Br)cc(Nc2nccc(-c3cnn4ncccc34)n2)c1
3. CN(c1ccc2c(c1)nc(NCc1ccc(F)cc1)n2C)c1ccnc(Nc2ccc(CS(C)(=O)=O)cc2)n1.Cl

1: 0%; 2: 52%; 3: 10%

---

test system: CHEK2; conditions: concentration: 1 μM,replicates: in singlicate; n = 1
measured_quantity: %Inh (%)
Numbers only, in %.

compound	%Inh (%)
CCn1c(-c2nonc2N)nc2cncc(Br)c21	41
O=C(Nc1n[nH]c2cc(-c3ccco3)ccc12)C1CC1	16
CS(=O)(=O)Nc1ccc(-c2ccnc3[nH]ccc23)cc1	0

Consider the following items and state reported %Inh for each.
1. COC(=O)Nc1nc2cc(Oc3ccc(NC(=O)Nc4cc(C(F)(F)F)ccc4Cl)cc3)ccc2[nH]1.Cl
2. C[C@@H]1CCN(C(=O)N2CCCC2)C[C@@H]1N(C)c1ncnc2[nH]ccc12
3. Cn1cc(-c2cccc3c(N)c(C(N)=O)nnc23)cn1
4. Cc1ccc2c(-c3ccnc(Nc4ccc(C(F)(F)F)cc4)n3)cnn2n1
5. CCOC(=O)N1CCC(n2cnc(-c3ccc(F)cc3)c2-c2ccnc(N)n2)CC1
6. CCNCC(Cc1ccccc1)NC(=O)c1cc(Br)c(-c2ccnc3[nH]ccc23)s1.Cl.Cl (stereo not drawn)
7. O=C1NCCc2[nH]c(-c3ccncc3)cc21

41
0
0
0
2
42
31

Consider the following items and state reported %Inh for each.
1. O=C(Nc1ccc(Oc2ccc3nc(NC(=O)C4CC4)cn3n2)c(F)c1)c1cccn(-c2ccccc2)c1=O
2. Cc1ccc(C(=O)Nc2ccc(Oc3ccc4nc(NC(=O)C5CC5)cn4c3)c(F)c2)c(=O)n1-c1ccccc1
3. CC(C(=O)NC1CCN(c2ccnc(Nc3ccc(F)cc3)n2)C1)c1ccc(Cl)cc1 (stereo not drawn)
4. O=C(Nc1cccc(Oc2ccc3nccn3n2)c1)Nc1cccc(C(F)(F)F)c1
5. CCn1c(-c2nonc2N)nc2cncc(CNC3CCNCC3)c21.Cl
6. COc1cc2ncn(-c3cc(OCC4CCCCC4)c(C(N)=O)s3)c2cc1OC
7. O=C(Nc1ccccc1)c1cccc(Oc2ccc3nccn3n2)c1
8. Cn1ccc2ncnc(Oc3ccc(NC(=O)Nc4cncc(C(F)(F)F)c4)c(Cl)c3)c21

1: 0; 2: 0; 3: 0; 4: 0; 5: 0; 6: 0; 7: 0; 8: 9
